System: HeLa Kyoto;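 also: HeLa Kyoto cells synchronized by double thymidine or nocodazole block, proteins quantified by TMT10plex mass spectrometry, three independent biological replicates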
Assay Name: melting temperature (median over replicates), in situ; higher = more thermally stable
Assay Setup: cell cycle stage: G1/S
Property: melting temperature (°C)

MEKTQETVQRILLEPYKYLLQLPGKQVRTKLSQAFNHWLKVPEDKLQIIIEVTEMLHNASLLIDDIEDNSKLRRGFPVAHSIYGIPSVINSANYVYFLGLEKVLTLDHPDAVKLFTRQLLELHQGQGLDIYWRDNYTCPTEEEYKAMVLQKTGGLFGLAVGLMQLFSDYKEDLKPLLNTLGLFFQIRDDYANLHSKEYSENKSFCEDLTEGKFSFPTIHAIWSRPESTQVQNILRQRTENIDIKKYCVHYLEDVGSFEYTRNTLKELEAKAYKQIDARGGNPELVALVKHLSKMFKEENE [GGPS1] | 55.2
MLTTLLPILLLSGWAFCSQDASDGLQRLHMLQISYFRDPYHVWYQGNASLGGHLTHVLEGPDTNTTIIQLQPLQEPESWARTQSGLQSYLLQFHGLVRLVHQERTLAFPLTIRCFLGCELPPEGSRAHVFFEVAVNGSSFVSFRPERALWQADTQVTSGVVTFTLQQLNAYNRTRYELREFLEDTCVQYVQKHISAENTKGSQTSRSYTSLVLGVLVGSFIIAGVAVGIFLCTGGRRC [PROCR] | 59.1
MPRPGSAQRWAAVAGRWGCRLLALLLLVPGPGGASEITFELPDNAKQCFYEDIAQGTKCTLEFQVITGGHYDVDCRLEDPDGKVLYKEMKKQYDSFTFTASKNGTYKFCFSNEFSTFTHKTVYFDFQVGEDPPLFPSENRVSALTQMESACVSIHEALKSVIDYQTHFRLREAQGRSRAEDLNTRVAYWSVGEALILLVVSIGQVFLLKSFFSDKRTTTTRVGS [TMED7] | 57.2
